// reported IC50 per item
- target.of.assay: UniProt:O60760
- Sequence (O60760 whole entry): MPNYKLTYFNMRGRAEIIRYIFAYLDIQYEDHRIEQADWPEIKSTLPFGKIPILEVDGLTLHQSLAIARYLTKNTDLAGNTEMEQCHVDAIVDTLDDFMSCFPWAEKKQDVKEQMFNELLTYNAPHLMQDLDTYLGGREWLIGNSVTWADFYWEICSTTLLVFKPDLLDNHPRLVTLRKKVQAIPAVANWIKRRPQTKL
property.measured: IC50

                              sample_smiles  target_of_assay  property_measured  value_measured
0  Cn1cccc1C(=O)N1CCN(C(=O)Nc2ccc(N3CCC(C(=O)NCCN4CCOCC4)CC3)cc2)CC1   UniProt:O60760               IC50           59 nM
1  Cn1cccc1C(=O)N1CCN(C(=O)Nc2ccc(N3CCC(CCn4cccn4)CC3)cc2)CC1   UniProt:O60760               IC50           40 nM
2  Cn1cccc1C(=O)N1CCN(C(=O)Nc2ccc(N3CCC(CCn4ccnn4)CC3)cc2)CC1   UniProt:O60760               IC50           71 nM
3  Cn1cccc1C(=O)N1CCN(C(=O)Nc2ccc(N3CCC(CN4CCOCC4)CC3)cc2)CC1   UniProt:O60760               IC50           54 nM
